Below is a list of entries, each paired with its recorded microsomal stability Cl [% Qh] value.
Experiment: Human Liver Microsomal Stability Test
Type: in vitro ADME
Details: human liver microsomes; compounds of the invention (own Example numbers)
Experimental: The metabolic degradation for a specific SYK-inhibitor is performed at 37° C. with pooled human liver microsomes (human liver microsomes are commercially available as “BD UltraPool™” by Corning Life Sciences, Fogostraat 12, 1060 LJ Amsterdam, The Netherlands). […] An aliquot of the supernatant is assayed by LC-MS/MS for the remaining amount of parent compound. The half-life (t½ INVITRO) is determined by the slope of the semilogarithmic plot of the concentration-time profile. […]

Solved entries:
smiles_data=COc1cc(-c2cc3nn(C)cc3c(O[C@H](C)[C@H]3CNC(=O)C3)n2)cc(OC)c1OC test_value="<23 % Qh"
smiles_data=C[C@@H](Oc1cc(-c2ccc3c(c2)c(N)nn3C)cc2nn(C)cc12)[C@H]1CNC(=O)C1 test_value="<23 % Qh"
smiles_data=COc1cc(-c2cc3nn(C)cc3c(O[C@H](C)[C@H]3CNC(=O)C3)n2)ccc1OC(C)C test_value="<23 % Qh"

# compound `C[C@@H](Oc1nc(-c2ccc3cnn(C)c3c2)cc2nn(C)cc12)[C@H]1CNC(=O)C1` ; its microsomal stability Cl [% Qh] = <23 % Qh
